# tgt: human properdin (human, UniProt P27918 28-469)
# Sequence (P27918 28-469 limits assumed): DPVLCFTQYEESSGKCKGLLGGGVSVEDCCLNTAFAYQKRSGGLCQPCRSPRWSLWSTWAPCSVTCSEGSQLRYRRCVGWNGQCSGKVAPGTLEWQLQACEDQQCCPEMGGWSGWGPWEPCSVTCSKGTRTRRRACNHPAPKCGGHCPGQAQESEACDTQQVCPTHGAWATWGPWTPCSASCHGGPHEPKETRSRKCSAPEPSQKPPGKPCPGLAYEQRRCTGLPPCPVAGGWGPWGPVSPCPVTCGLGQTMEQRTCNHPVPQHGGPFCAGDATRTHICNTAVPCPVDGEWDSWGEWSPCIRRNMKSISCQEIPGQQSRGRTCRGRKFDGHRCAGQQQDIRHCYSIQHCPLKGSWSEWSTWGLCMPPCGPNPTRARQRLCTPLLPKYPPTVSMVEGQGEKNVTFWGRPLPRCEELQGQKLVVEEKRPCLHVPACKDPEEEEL
# assaySummary: ELISA, human properdin coated on plate
Reported Binding Affinity values for the following binders.
Reply numerically in pM, unit not repeated.

Record excerpt, results attached:
binder	reportedResult
NMT18 (antibody, V domains shown) VH: EVQLVQSGAEVKKPGASVKVSCKASGYIFTNYPIHWVRQAPGQGLEWMGFIDPGGGYDEPDERFRDRVTMTADTSTSTAYMELSSLRSEDTAVYYCARRGGGYYLDYWGQGTTVTVSS VL: DIQMTQSPSSLSASVGDRVTITCRASQDISFFLNWYQQKPGKAPKLLIYYTSRYHSGVPSRFSGSGSGTDFTLTISSLQPEDFATYYCQHGQTLPWTFGQGTKLEIK	289
NMT15 (antibody, V domains shown) VH: QVQLVQSAPEVAKPGTSVKMSCKASGYIFTNYPIHWVKQAPGQGLEWIGFIDPGGGYDEPDERFRDRATLTADKSTSTAYMELSSLRSEDTAIYYCARRGGGYYLDYWGQGTLVTVSS VL: DIQMTQSPSSLSASLGDRVTITCRASQDISFFLNWYQQKPDGTVKLLIYYTSRYHSGVPSRFSGSGSGTDFTLTISSLQPEDFATYFCQHGNTLPWTFGQGTKLEIK	270
NMT21 (antibody, V domains shown) VH: EVQLVQSGAEVKKPGASVKVSCKASGYIFTNYPIHWVRQAPGQGLEWMGFIDPGGGYDEYAQKFQGRVTLTADTSTSTAYMELSSLRSEDTAVYYCARRGGGYYLDYWGQGTTLTVSS VL: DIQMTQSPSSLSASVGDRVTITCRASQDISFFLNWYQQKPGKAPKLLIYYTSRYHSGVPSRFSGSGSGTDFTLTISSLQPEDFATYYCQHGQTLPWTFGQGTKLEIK	353

Now take the following binder into account.
binder NMT16 (antibody, V domains shown) VH: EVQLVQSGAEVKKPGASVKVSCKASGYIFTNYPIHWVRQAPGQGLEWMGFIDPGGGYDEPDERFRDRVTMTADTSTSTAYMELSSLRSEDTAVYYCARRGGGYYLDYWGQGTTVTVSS VL: DIQMTQSPSSLSASVGDRVTITCRASQDISFFLNWYQQKPGKAPKLLIYYTSRYHSGVPSRFSGSGSGTDFTLTISSLQPEDFATYYCQHGNTLPWTFGQGTKLEIK , Binding Affinity observed: 315
